src = paper PMC12136037

Biological target: ~100 representative kinases (Homo sapiens)
Construct: Recombinant protein kinase domains with a concentration of 2 μM
Assay: DSF 100 kinase selectivity screen;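 further: compound tested at 20 µM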
Type: binding
Details: Protein SRPK1; DSF; average of three replicates
Outcome measure: dTm (K)

Examples with their reported dTm follow.
COc1cc(C(=O)N2CCOCC2)c(F)cc1Nc1nc(N(C)C)c2c(Cl)c[nH]c2n1 :: 3.22
CNC(=O)c1cc(Oc2ccc(NC(=O)Nc3cc(C(C)(C)C)nn3-c3ccc4ncccc4c3)c(F)c2)ccn1 [Rebastinib, reference compound] :: 14.66
Cc1cc(NC(=O)C2(C(=O)Nc3ccc(F)cc3)CC2)cc(-c2c[nH]c3ncnc(N4CCOCC4)c23)c1 :: 7.72
CCc1ccc(NC(=O)C2(C(=O)Nc3cccc(-c4c[nH]c5ncnc(N6CCOCC6)c45)c3)CC2)cc1 :: 5.47
O=C(Nc1cccc(-c2c[nH]c3ncnc(N4CCOCC4)c23)c1)C1(C(=O)Nc2ccc(F)c(F)c2)CC1 :: 8.69

[A] O=C(Nc1cccc(-c2c[nH]c3ncnc(N4CCOCC4)c23)c1)C1(C(=O)Nc2ccc(F)cc2F)CC1
[B] O=C(Nc1cccc(-c2c[nH]c3ncnc(N4CCOCC4)c23)c1)c1cccn(-c2ccc(F)cc2)c1=O
[C] COc1cc(S(C)(=O)=O)ccc1Nc1nc(N(C)C)c2c(Cl)c[nH]c2n1
[D] COc1ccc(NC(=O)C2(C(=O)Nc3cccc(-c4c[nH]c5ncnc(N6CCOCC6)c45)c3)CC2)cc1
[E] O=C(Nc1cc(F)cc(Br)c1)C1(C(=O)Nc2cccc(-c3c[nH]c4ncnc(N5CCOCC5)c34)c2)CC1
## Input // ascending sort on recorded dTm Returns: the labels arranged in the requested order.
## Output E, C, D, A, B
(E: -0.47 K, C: 0.39 K, D: 3.35 K, A: 6.35 K, B: 9.86 K)

[P] O=C(Nc1cccc(-c2c[nH]c3ncnc(N4CCOCC4)c23)c1)C1(C(=O)Nc2cc(Br)c(F)cc2F)CC1
[Q] O=C(Nc1cccc(-c2c[nH]c3ncnc(N4CCOCC4)c23)c1)C1(C(=O)Nc2ccc(F)c(Cl)c2)CC1
## Input Return label of the item with the larger dTm. Candidates: P , Q . Refer to your chosen entry by its label in the reply.
## Output Q

[A] O=C(Nc1ccc(Cl)cc1)C1(C(=O)Nc2cccc(-c3c[nH]c4ncnc(N5CCOCC5)c34)c2)CC1
[B] O=C(Nc1ccccc1)C1(C(=O)Nc2cccc(-c3c[nH]c4ncnc(N5CCOCC5)c34)c2)CC1
[C] Cc1cc(F)ccc1NC(=O)C1(C(=O)Nc2cccc(-c3c[nH]c4ncnc(N5CCOCC5)c34)c2)CC1
## Input # sort list by recorded dTm, greatest to least Returns: the labels arranged in the requested order.
## Output A, B, C

----------
Biological target: ~100 representative kinases (Homo sapiens)
Construct: Recombinant protein kinase domains with a concentration of 2 μM
Test: DSF 100 kinase selectivity screen;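 further: compound tested at 20 µM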
Assay type: binding
Conditions: Protein EPHA4; average of three replicates
Outcome measure: dTm (K)

CCSc1nc(NC)c2c(-c3cccc(NC(=O)Nc4cc(C(C)(C)C)nn4-c4ccc(C)cc4)c3)c[nH]c2n1 :: -0.34

[I] Cc1ccc(-n2nc(C(C)(C)C)cc2NC(=O)Nc2cccc(-c3c[nH]c4ncnc(N5CCOCC5)c34)c2)cc1
[II] COc1cc(NC(=O)C2(C(=O)Nc3cccc(-c4c[nH]c5ncnc(N6CCOCC6)c45)c3)CC2)ccc1F
## Input Among I and II , whose measured dTm is the smaller figure? Refer to your chosen entry by its label in the reply.
## Output II

[I] Cc1ccc(NC(=O)C2(C(=O)Nc3cccc(-c4c[nH]c5ncnc(N6CCOCC6)c45)c3)CC2)cc1
[II] O=C(Nc1cc(F)cc(Br)c1)C1(C(=O)Nc2cccc(-c3c[nH]c4ncnc(N5CCOCC5)c34)c2)CC1
## Input Among I and II , whose measured dTm is the smaller figure? Refer to your chosen entry by its label in the reply.
## Output II
(II: 1.53 K, I: 2.64 K)

[I] O=C(Nc1cccc(-c2c[nH]c3ncnc(N4CCOCC4)c23)c1)C1(C(=O)Nc2ccc(F)c(F)c2)CC1
[II] COc1cc(S(C)(=O)=O)ccc1Nc1nc(N(C)C)c2c(Cl)c[nH]c2n1
## Input Return label of the item with the larger dTm. Candidates: I , II . Refer to your chosen entry by its label in the reply.
## Output I

----------
Target: ~100 representative kinases (Homo sapiens)
Construct: Recombinant protein kinase domains with a concentration of 2 μM
Test: DSF 100 kinase selectivity screen;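 further: compound tested at 20 µM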
Format: binding
Conditions: Protein SRPK3; DSF; average of three replicates
Outcome measure: dTm (K)

Examples with their reported dTm follow.
COc1cc(C(=O)N2CCOCC2)c(F)cc1Nc1nc(N(C)C)c2c(Cl)c[nH]c2n1 :: 1.84
COc1cc2c(Oc3ccc(NC(=O)C4(C(=O)Nc5ccc(F)cc5)CC4)cc3F)ccnc2cc1OCCCN1CCOCC1 [Foretinib, reference compound] :: 7.41

[a] O=C(Nc1cccc(-c2c[nH]c3ncnc(N4CCOCC4)c23)c1)C1(C(=O)Nc2cc(Br)c(F)cc2F)CC1
[b] O=C(Nc1cccc(-c2c[nH]c3ncnc(N4CCOCC4)c23)c1)C1(C(=O)Nc2ccc(F)c(F)c2)CC1
## Input Among a and b , whose measured dTm is the smaller figure? Refer to your chosen entry by its label in the reply.
## Output a
(a: 3.28 K, b: 5.74 K)

----------
Target: ~100 representative kinases (Homo sapiens)
Construct: Recombinant protein kinase domains with a concentration of 2 μM
Assay: DSF 100 kinase selectivity screen;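 further: compound tested at 20 µM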
Type: binding
Conditions: protein MARK3; average of three replicates
Outcome measure: dTm (K)

Examples with their reported dTm follow.
Cc1ccc(NC(=O)C2(C(=O)Nc3cccc(-c4c[nH]c5ncnc(N6CCOCC6)c45)c3)CC2)cc1 :: 4.90
Cc1cc(NC(=O)C2(C(=O)Nc3ccc(F)cc3)CC2)cc(-c2c[nH]c3ncnc(N4CCOCC4)c23)c1 :: 4.35

[A] O=C(Nc1cccc(-c2c[nH]c3ncnc(N4CCOCC4)c23)c1)C1(C(=O)Nc2cccc3c2CCC3)CC1
[B] Cc1ccc(C(=O)Nc2ccc(CN3CCN(C)CC3)c(C(F)(F)F)c2)cc1C#Cc1c[nH]c2ncnc(N3CCOCC3)c12
## Input Among A and B , whose measured dTm is the smaller figure? Refer to your chosen entry by its label in the reply.
## Output B
(B: 1.49 K, A: 3.89 K)

----------
Target: ~100 representative kinases (Homo sapiens, UniProt Q15418)
Construct: Recombinant protein kinase domains with a concentration of 2 μM
Sequence (Q15418 whole entry, the tested form may be a part): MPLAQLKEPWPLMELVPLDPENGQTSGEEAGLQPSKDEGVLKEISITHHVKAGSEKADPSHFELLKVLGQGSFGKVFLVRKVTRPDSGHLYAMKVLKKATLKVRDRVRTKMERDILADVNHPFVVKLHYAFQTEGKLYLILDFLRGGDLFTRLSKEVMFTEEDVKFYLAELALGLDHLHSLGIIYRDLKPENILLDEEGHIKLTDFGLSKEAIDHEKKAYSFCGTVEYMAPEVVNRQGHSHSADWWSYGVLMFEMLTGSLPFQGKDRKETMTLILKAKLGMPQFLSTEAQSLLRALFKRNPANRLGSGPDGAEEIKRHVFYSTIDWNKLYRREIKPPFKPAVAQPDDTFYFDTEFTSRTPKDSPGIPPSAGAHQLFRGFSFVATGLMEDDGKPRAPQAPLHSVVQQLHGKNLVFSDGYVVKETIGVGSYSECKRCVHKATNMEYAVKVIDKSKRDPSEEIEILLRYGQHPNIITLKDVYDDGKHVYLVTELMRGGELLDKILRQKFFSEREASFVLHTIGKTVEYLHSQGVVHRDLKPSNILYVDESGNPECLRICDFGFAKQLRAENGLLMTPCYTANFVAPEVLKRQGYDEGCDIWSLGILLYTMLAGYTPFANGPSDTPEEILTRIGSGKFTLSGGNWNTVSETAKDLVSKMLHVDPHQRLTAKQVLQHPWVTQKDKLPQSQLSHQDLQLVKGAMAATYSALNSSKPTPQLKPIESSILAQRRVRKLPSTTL
Assay: DSF 100 kinase selectivity screen;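 further: compound tested at 20 µM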
Assay type: binding
Conditions: Protein RPS6KA1; DSF; average of three replicates
Outcome measure: dTm (K)

Cc1ccc(C(=O)Nc2ccc(CN3CCN(C)CC3)c(C(F)(F)F)c2)cc1C#Cc1cnc2cccnn12 [Ponatinib, reference compound] :: 9.86

[a] O=C(Nc1cccc(-c2c[nH]c3ncnc(N4CCOCC4)c23)c1)C1(C(=O)Nc2ccc(F)c(F)c2)CC1 [Compound 17]
[b] O=C(Nc1cc(F)cc(Br)c1)C1(C(=O)Nc2cccc(-c3c[nH]c4ncnc(N5CCOCC5)c34)c2)CC1 [Compound 27]
[c] Cc1ccc(NC(=O)C2(C(=O)Nc3cccc(-c4c[nH]c5ncnc(N6CCOCC6)c45)c3)CC2)cc1 [Compound 14]
## Input # sort list by recorded dTm, greatest to least Returns: the labels arranged in the requested order.
## Output a, c, b
(a: 0.38 K, c: 0.14 K, b: 0.00 K)

----------
Target: ~100 representative kinases (Homo sapiens)
Construct: Recombinant protein kinase domains with a concentration of 2 μM
Assay: DSF 100 kinase selectivity screen;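 further: compound tested at 20 µM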
Type: binding
Settings: Protein DAPK1; average of three replicates
Description: Recombinant protein kinase domains with a concentration of 2 μM were mixed with a 20 μM compound solution in dimethyl sulfoxide (DMSO), 20 mM Hepes (pH 7.5), and 500 mM NaCl. SYPRO Orange (5000×, Invitrogen) was added as a fluorescence probe (1μl/ml). Subsequently, temperature-dependent protein unfolding profiles were measured using the QuantStudio 5 realtime PCR machine (Thermo Fisher Scientific, Waltham, MA, USA). […] The temperature was raised with a step rate of 3°C/min. […]
Outcome measure: dTm (K)

CNC(=O)c1cc(Oc2ccc(NC(=O)Nc3cc(C(C)(C)C)nn3-c3ccc4ncccc4c3)c(F)c2)ccn1 [Rebastinib, reference compound] :: -1.01

[P] Cc1ccc(-n2nc(C(C)(C)C)cc2NC(=O)Nc2cccc(-c3c[nH]c4nc(Cl)nc(N5CCOCC5)c34)c2)cc1
[Q] COc1cc(NC(=O)C2(C(=O)Nc3cccc(-c4c[nH]c5ncnc(N6CCOCC6)c45)c3)CC2)ccc1F
## Input Among P and Q , whose measured dTm is the smaller figure? Refer to your chosen entry by its label in the reply.
## Output P
(P: -3.64 K, Q: -1.16 K)
